Assay: physchem
Conditions: 37 °C, pH 6.8, aqueous buffer, thermodynamic from solid
REPORTED METRIC: solubility

solubility reported for this compound CN1C[C@H]2C[C@@]2(C#Cc2cc3ncnc(Nc4cccc(Cl)c4F)c3cc2NC(=O)/C=C/CN2CCOCC2)C1 [Form F] : ~20 µg/mL

----------
Assay: Solubility study in aqueous media at 37° C. (HPLC of supernatants, pH)
Conditions: SGF, 37 °C, pH 2, simulated gastric fluid, thermodynamic from solid
REPORTED METRIC: solubility at 2 h

For CN1C[C@H]2C[C@@]2(C#Cc2cc3ncnc(Nc4cccc(Cl)c4F)c3cc2NC(=O)/C=C/CN2CCOCC2)C1 [Form C] the molecule record lists solubility at 2 h as > 2 mg/mL
